test: Solubility in simulated gastric and intestinal fluids; assay type: physicochemical; details: simulated gastric fluid (SGF), simulated gastric fluid; Acetate Salt, SGF pH 2
Value Kind: solubility (µg/mL)
Enter your answer as a number in µg/mL; do not include the unit.

## Task # input compound: Cc1cccc2c(C3=C(c4nc(N5CCNC6(CC6)C5)cc5ccccc45)C(=O)NC3=O)c[nH]c12 [Example 3] ; wanted: its solubility
## Result 150

* * *

system: Bone marrow cells from CBA mice; experiment: Bone marrow cell proliferation (BM) assay; format: cell-based; details: Mus musculus, 3H-thymidine incorporation, four days incubation
Value Kind: IC50
In your response, put the unit directly after the numeric value.

compound="Cc1cccc2c(C3=C(c4nc(N5CCNC6(CC6)C5)cc5ccccc45)C(=O)NC3=O)c[nH]c12 [Example 3]" result="1670 nM"

Now for the compound whose IC50 we want.
## Task What IC50 appears in the records for this compound with Bone marrow cells from CBA mice? Cc1cccc2c(C3=C(c4nc(N5CCNC6(CC6)C5)cc5ccccc45)C(=O)N(COP(=O)(O)O)C3=O)c[nH]c12 [Example 1]
## Result 6740 nM

* * *

assay: Solubility in simulated gastric and intestinal fluids; type: physicochemical; conditions: Fasted state simulated intestinal fluid (FaSSIF) pH 6.5, room temperature
Value Kind: solubility

## Task # input molecule: Cc1cccc2c(C3=C(c4nc(N5CCNC6(CC6)C5)cc5ccccc45)C(=O)N(COP(=O)(O)O)C3=O)c[nH]c12 ; wanted: its solubility
## Result 100 µg/mL
